All values here come from PubChem BioAssay AID1963969.

Each item that follows carries a reported viability, T/C.
System: 817829-284-R-J1-PDC multi-cell spheroid viability;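 note: spheroids exposed to agents for seven days before readout; percent of vehicle DMSO control viability which is 100%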
TEST_SUMMARY: Anticancer human tumor 817829-284-R-J1-PDC patient-derived colon adenocarcinoma cell line growth inhibition [PI3K]
MEASUREMENT_CONDITIONS: second compound 0.0316 µM; first compound 0.1 µM; active compounds read low

In the examples that follow, each entry is paired with its recorded viability, T/C.
C#Cc1c(F)ccc2cc(O)cc(-c3ncc4c(N5CC6CCC(C5)N6)nc(OCC56CCCN5CC(F)C6)nc4c3F)c12 (stereo not drawn) + CC(Nc1ccc2c(c1)OCCn1cc(N3C(=O)OCC3C(F)F)nc1-2)C(N)=O = 69.8%
CCN1CCN(Cc2ccc(Nc3ncc(F)c(-c4cc(F)c5nc(C)n(C(C)C)c5c4)n3)nc2)CC1 + Cc1nc(NC(=O)N2CCCC2C(N)=O)sc1-c1ccnc(C(C)(C)C(F)(F)F)c1 = 52.5%

Here is another compound to look at.
The recorded viability, T/C for entry CC1(C)CCC(CN2CCN(c3ccc(C(=O)NS(=O)(=O)c4ccc(NCC5CCOCC5)c([N+](=O)[O-])c4)c(Oc4cnc5[nH]ccc5c4)c3)CC2)=C(c2ccc(Cl)cc2)C1 + COc1c(OCCCN2CCOCC2)ccc2c3n(c(=NC(=O)c4cnc(N)nc4)nc12)CCN3 equals 63.2%
